procedure_summary: supercomplex reporter luminescence per Hoechst cell count – Hoechst nuclei count (AID 1645838);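 also: control cybrid cells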
details: Cells, luminescence/Hoechst cell count ratio, measured here: cell number, Hoechst nuclei count, library stock concentration (final well concentration not given) 400 uM
Out of some 2,000 compounds screened, about 100 (5%) were called active. The sample holds actives, similar compounds and a random draw of the others, so the mix is not that of the screen.
Kindly return Met if reported cell count is no lower than 5000; return Not met if it is lower.

Study these solved cases before continuing.
INSERT INTO measurements (compound, answer_label) VALUES
  ('Oc1ccc(C=NN(Cc2ccccc2)Cc2ccccc2)cc1', 'Not met'),
  ('NC(=O)c1ccc2nc(-c3ccc(Oc4ccc(Cl)cc4)cc3)[nH]c2c1', 'Not met');

IN: Is it the case that Cc1ccc(C(=O)Nc2cccc(C(F)(F)F)c2)cc1Nc1cncc(C(N)=O)c1 has cell count reaching or exceeding 5000?
OUT: Not met

IN: Is it the case that CC(=O)c1ccc2c(c1)c1cc(C(C)=O)ccc1n2CCNC(C)C has cell count reaching or exceeding 5000?
OUT: Not met

IN: Is it the case that Cc1c(Cc2ccc3ccccc3n2)c2cc(F)ccc2n1CC(=O)O has cell count reaching or exceeding 5000?
OUT: Met

IN: Is it the case that O=C(O)c1ccc(Nc2ncc3c(n2)-c2ccc(Cl)cc2C(c2c(F)cccc2F)=NC3)cc1 has cell count reaching or exceeding 5000?
OUT: Not met

IN: Is it the case that CCC(=C(CC)c1ccc(O)cc1)c1ccc(O)cc1 has cell count reaching or exceeding 5000?
OUT: Met

IN: Is it the case that CN(C)CCOc1ccc(-c2nc(-c3ccc4c(c3)CCC4=NO)c(-c3ccncc3)[nH]2)cc1 has cell count reaching or exceeding 5000?
OUT: Not met

IN: Is it the case that O=c1cc(-c2cccc3c2Sc2ccccc2S3)oc(N2CCOCC2)c1 has cell count reaching or exceeding 5000?
OUT: Not met

IN: Is it the case that Cc1ccc(NC(=O)c2ccc(CN3CCN(C)CC3)cc2)cc1Nc1nccc(-c2cccnc2)n1 has cell count reaching or exceeding 5000?
OUT: Not met

IN: Is it the case that Oc1cc(-c2nc(-c3ccccc3)[nH]c2-c2ccncc2)ccc1Cl has cell count reaching or exceeding 5000?
OUT: Met

IN: Is it the case that CN(C)C1CCN(C(=O)c2ccc(NC(=O)Nc3ccc(-c4nc(N5CCOCC5)nc(N5CCOCC5)n4)cc3)cc2)CC1 has cell count reaching or exceeding 5000?
OUT: Not met

IN: Is it the case that COCC(c1ccc(C(F)(F)F)cc1)N1CCN(C2(C)CCN(C(=O)c3c(C)ncnc3C)CC2)CC1C (stereo not given) has cell count reaching or exceeding 5000?
OUT: Met

IN: Is it the case that CC(C)(O)c1ccccc1CCC(SCC1(CC(=O)O)CC1)c1cccc(C=Cc2ccc3ccc(Cl)cc3n2)c1 (stereo not given) has cell count reaching or exceeding 5000?
OUT: Met

* * *

procedure_summary: supercomplex reporter luminescence per Hoechst cell count – Hoechst nuclei count (AID 1645838);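 also: control cybrid cells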
details: Cells, luminescence/Hoechst cell count ratio, measured here: cell number, Hoechst nuclei count, library stock concentration (final well concentration not given) 2 mM
In all, about 2,000 compounds went through this assay and about 100 (5%) were called active. What follows is part of a selection rich in actives, with near analogues and random picks from the rest.
Please go through the items and note down their cell count.
Give bare numbers.

// known answers, use as guide
INSERT INTO results (compound, quantitative_result) VALUES
  ('O=C(Nc1ccc(N2CCOCC2)cc1)c1n[nH]c2ccccc12', 4900),
  ('O=C(NCc1cccnc1)c1ccc(CNS(=O)(=O)c2ccc(F)cc2)cc1', 5220),
  ('O=C(Nc1ccccc1)Nc1ccc(-c2ccc(C(=O)C3CCCC3C(=O)O)cc2)cc1 (centres undefined)', 6590),
  ('Cc1ccc(-c2ccc3c(c2)C=C(C(=O)Nc2ccc(C[N+](C)(C)C4CCOCC4)cc2)CCC3)cc1', 5740),
  ('Cc1ccc(C(=O)Nc2cccc(C(F)(F)F)c2)cc1Nc1nc(-c2cccnc2)nc2c1cnn2C', 3810);

Take each entry in turn and give its cell count.
1. Cc1ccc(NC(=O)c2cccc(C(C)(C)C#N)c2)cc1Nc1ccc2ncn(C)c(=O)c2c1
2. COc1cc(OC)c(NC(=O)Nc2cc(C)on2)cc1Cl

OUT:
2280
6660

Take each entry in turn and give its cell count.
1. OC(COc1cccc2ncccc12)CN1CCN(C2c3ccccc3C3C(c4ccccc42)C3(F)F)CC1 (centres undefined)
2. CC(C)(C)n1nc(-c2ccc(Cl)cc2)c2c(N)ncnc21
3. COc1ccc(C(=O)O)cc1
4. Cc1cc(Nc2ccc(NC(=O)c3ccc(Nc4ccnc5ccccc45)cc3)cc2)nc(N)n1
5. COc1ccc(C(=O)Nc2sc(Nc3ccccc3)nc2C(N)=O)cc1

OUT:
[4340, 5300, 5670, 6140, 4780]

Take each entry in turn and give its cell count.
1. NC(N)=NN=Cc1ccc(Cl)c(Cl)c1
2. O=C(O)c1ccc(Nc2ncc3c(n2)-c2ccc(Cl)cc2C(c2c(F)cccc2F)=NC3)cc1
3. O=C(O)c1cccc(S(=O)(=O)N2CCc3ccccc3C2)c1
4. COc1cc(C)c(Sc2cnc(NC(=O)c3ccc(CNC(C)C(C)C)cc3)s2)cc1C(=O)N1CCN(C(C)=O)CC1 (centres undefined)

OUT:
1: 4910; 2: 3530; 3: 5230; 4: 4120

Take each entry in turn and give its cell count.
1. COC(=O)C(CCSC)NC(=O)c1ccc(NCC(N)CS)cc1-c1ccccc1 (centres undefined)
2. CC(C)(O)c1ccccc1CCC(SCC1(CC(=O)O)CC1)c1cccc(C=Cc2ccc3ccc(Cl)cc3n2)c1 (centres undefined)
3. COc1cc(N2CCC(C(N)=O)CC2)ccc1Nc1nc(N)c(Cl)c(Nc2ccccc2S(=O)(=O)C(C)C)n1
4. CN(C)CCOc1ccc(-c2nc(-c3ccc4c(c3)CCC4=NO)c(-c3ccncc3)[nH]2)cc1
5. O=C(NOCC1CC1)c1ccc(F)c(F)c1Nc1ccc(I)cc1Cl

OUT:
6090
5330
4640
3060
3870

Take each entry in turn and give its cell count.
1. O=C(c1cc(Cc2n[nH]c(=O)c3ccccc23)ccc1F)N1CCN(C(=O)C2CC2)CC1
2. CC(O)C(O)C1CNc2nc(N)[nH]c(=O)c2N1 (centres undefined)
3. CN(C)C1CCN(C(=O)c2ccc(NC(=O)Nc3ccc(-c4nc(N5CCOCC5)nc(N5CCOCC5)n4)cc3)cc2)CC1
4. CC(C)(C)c1ccc(S(=O)(=O)NCc2ccc(C(=O)Nc3cccnc3)cc2)cc1
5. Cn1cncc1[C@@](N)(c1ccc(Cl)cc1)c1ccc2c(c1)c(-c1cccc(Cl)c1)cc(=O)n2C
6. Nc1ncnc2c1c(-c1ccc(Oc3ccccc3)cc1)cn2C1CCCC1

OUT:
[5940, 4750, 1900, 2500, 3590, 4080]

Take each entry in turn and give its cell count.
1. Cc1cc(N2CCOCC2)cc2[nH]c(-c3c(NCC(O)c4cccc(Cl)c4)cc[nH]c3=O)nc12 (centres undefined)
2. Cn1cnc2c(F)c(Nc3ccc(Br)cc3F)c(C(=O)NOCCO)cc21
3. O=C(Nc1ccc(S(=O)(=O)Nc2ccccc2Cl)c(Cl)c1)c1ccccn1
4. CCCCc1ccc(O)cc1O
5. CC(C)c1ccc(-c2cc(=O)c3ccccc3o2)cc1

OUT:
1: 4590; 2: 2640; 3: 5480; 4: 5060; 5: 5670

Take each entry in turn and give its cell count.
1. Cc1ccc(C(=O)NCCCCCC(=O)Nc2ccccc2N)cc1
2. Oc1cc(-c2nc(-c3ccccc3)[nH]c2-c2ccncc2)ccc1Cl

OUT:
1. 4840
2. 5020
